Listed sequences paired with reported apparent KD of K4 kissing-loop reporter
Test system: K4 kissing-loop RNA reporter
experiment: apparent KD of K4 kissing-loop reporter; higher = weaker reporter binding
run.parameters: Eterna round: R107; input ligand: tryptophan 2.4 mM

# biopolymer.sequence, apparent KD of K4 kissing-loop reporter [nM]
data = [
    ("UUUAAAUAUAGUGAUGUUAUAUAACAAUGACGAGGACCGGUACGGCCGCCACUCGAGAGAGAUAAUGGUCAUACAAAUGUAUGUC [AstrosSSTryA#7]", 564),
    ("GUGCGCGGUGCGGCCGCCACUCGGAUGCGAGUGAUGUUCGCGGGACGGACGCAAGUCCGUCAUUCGAGGACCGGGCAUGGCUGUA [#2 Same State - Tryptophan B Attempt #5 (HarryS)]", 169),
    ("UUUGGUUUCUCGGCCGCCACUCGUUGGUUAUGGGCUUCAGGGAUAUAGUGAUGUUAUGUAUAGAAGAGGACCGGGAGAAGGUUUU [ExTryptoB.Du]", 239),
    ("CAGAUGUAGGCGGCCGCCACUCUCAUUACCGUACGCAAGUAUGAUUAGAAGUGAUGUUUCUCGGUGAGGACCGGGCCAUUCCCGA [theeternabot_sameState_KL_Trp_B_27]", 545),
    ("UGAUACCAGACGGCCGCCACUCCCGCAGGUCAAAGACCUGCGAAGCUGGUUCUUCAGUGAUGUUGGAGGACCGGGUCUGGUAUCU [FiskerMod 24 - Jieux - Exclusion - Tryptophan B]", 504),
    ("AUUAAUUUCAGAGGAUAUCGUUAUUUUUUUAAGUAUAAUCUAUUAUGCAGUGAUGUUGCUAUUAAUCGAGAAGGCUGAUUUAUAA [JR_ExcFMNB_Sub001]", 78.5),
]

====

Tested on: MS2 coat protein
experiment: apparent KD of MS2 coat protein; designed switch direction (-1 OFF switch, 1 ON switch): 1; higher = weaker reporter binding
run.parameters: input ligand: microRNA oligo, concentration not stated

# biopolymer.sequence, display.unit, apparent KD of MS2 coat protein
data = [
    ("UGAUCGCUUGGAGGAUAUCCAACUAUCCUAGUUGGAGAAGGCCAAGCUACAGAGCUAAGCUUGGAAGUCACUUCGAAUCAACAC [pwkr ssNG1 F9.4] (Eterna round: R96, puzzle: Same State NG 1)", "nM", 129),
    ("AAGCUCGUGUGAGGAUAUGCCGCCGUUUCGGCUGCAGAAGGUGCUACGUUACAUGAGGAUCACCCAUGUCUCUGUUGUUUCGUU [salish99_SSNG1_r04_951] (Eterna round: R96, puzzle: Same State NG 1)", "nM", 15.9),
    ("AGCUAGUACCGAGGAUAUACAUACAUGAGGAUCACCCAUGUAUACAUGAUUUAAUGAGACUACAUGUAGAAGGCGGUACUAGCA [JL SSNG2 1.23] (Eterna round: R96, puzzle: Same State NG 2)", "nM", 68.6),
    ("GGUGCAAUAAACGCCUACAUGAGGAUCACCCAUGUAUGUAGGCAGGAUAUCGUUUGCAAAGCAAACGAGAAGGGCUGUAGUACC [Mat - Same State NG 3 - JL Mod - D41] (Eterna round: R96, puzzle: Same State NG 3)", "nM", 82.3),
    ("AAUUAAUUAAUUAAUAUACAUGAGGAUCACCCAUGUAAGAUCAAGGAUAUCAGCUCGAUUAGAGCUGAGAAGGUGAUCACAUGU [SSNG3/16-A2] (Eterna round: R96, puzzle: Same State NG 3)", "nM", 207),
    ("CCGGAUAAUGGAGGAUAUGGAGCCUUAUUGGCUCCAGAAGGCUAACAUGAGGAUCACCCAUGUAAUCCGGCGGUCAAUAGACCG [Eli NG1ss - 65] (Eterna round: R96, puzzle: Same State NG 1)", "nM", 15),
    ("UUGAAGAAUUAAGGAUAUUGAUUACAUAUGUUAAACAUGAGGAUCACCCAUGUGGGUUGCGGUAUCGAGAAGGUAAAUUAAUAG [Mat - same State NG 2 - JL mod - D77] (Eterna round: R96, puzzle: Same State NG 2)", "nM", 89.6),
    ("UAGGGACAUGAGGAUCACCCAUGUGCCUCAUAUGGAGAAACACAGGAUAUGCUGAGGGAAACAUGGCAGAAGGGUGAAGAGAGG [Default title] (Eterna round: R96, puzzle: Same State NG 3)", "nM", 27.3),
    ("GCUGGAAACCACAUGAGGAUCACCCAUGUUCCGGAAACGGCACAGGAUAUCUGUCCGAAAAGGUCAGAGAAGGGUGUAACCAGC [Fiskers NG3ss - 86] (Eterna round: R96, puzzle: Same State NG 3)", "nM", 338),
    ("ACAUGAGAUUGAGGAUAUAUUGUACCUACAUGUGACAUGAGGAUCACCCAUGUGGUAAGUAUGACAUAGAAGGCAGAGAUAUGU [Equivalance 84 - Jieux - Same State NG 2] (Eterna round: R96, puzzle: Same State NG 2)", "nM", 107),
    ("GUUACAUGAGGAUCACCCAUGUAUGUGUGGGAGUAAGUGUCUUAGGAUAUCUAUGAUUUAAUUAAAGAGAAGGAAGAUUGUUGU [JMF's solution 83] (Eterna round: R96, puzzle: Same State NG 3)", "nM", 85),
    ("GGCCUGAGUCAAGGAUAUGCUACCGUUUCGGUAGCAGAAGGUGAUCACAUGAGGAUCACCCAUGUUUACGCGAAGACGCGCGCC (Eterna round: R96, puzzle: Same State NG 1)", "nM", 56.7),
    ("GUUACAUGAGGAUCACCCAUGUAUGUGUGGGAGUAAGUGUCUUAGGAUAUCUAUGGUUUAAUUUAAGAGAAGGAAGAUUGUUGU [JMF's solution 72] (Eterna round: R96, puzzle: Same State NG 3)", "nM", 73.9),
    ("GGAGCCAAGGCAGGAUAUUCAUAUUAAAUAACAUGAGGAUCACCCAUGUAGGCCAGAAGGCCUUGGGAGAAGGGCCAUGGCUCG [Xeonanis - 13 mod21] (Eterna round: R96, puzzle: Same State NG 2)", "nM", 109),
    ("GGAGCCGGCCUAGGAUAUUUCAUAAACAAACAUGAGGAUCACCCAUGUAGGCCAGAAGGCCUUGGGAAGAAGGAGGUCGGCUCC [Loop Effect - C27] (Eterna round: R96, puzzle: Same State NG 2)", "nM", 32.2),
    ("AUUUGCGCUAUAGGAUAUGGCAGGGUGAACCAGCCAGAAGGAUAAGUAGGGAGGUGACAUGAGGAUCACCCAUGUAAUAAGGAA [Eternabot solution 6] (Eterna round: R96, puzzle: Same State NG 1)", "nM", 290),
    ("AUAAAACAUGAGGAUCACCCAUGUCAACAAAGUCGAGGAUAUGGGCAAAUAAAAUAAGAACCAGAAGGCGAAUUAU [salish99_ss1_r3_036] (Eterna round: R96, puzzle: Same State 1)", "nM", 185),
    ("CAUCUCCCUUUUACAUGAGGAUCACCCAUGUUUUCAUAUUGAGAGGAUAUCGUAUUUGGAAACAUCGAGAAGGCUCAUUUGUAU [JR_SSNG3_Sub073] (Eterna round: R96, puzzle: Same State NG 3)", "nM", 345),
]

====

Tested on: K4 kissing-loop RNA reporter;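 further: bound reporter read as fluorescence of individual clusters on recovered sequencing chips by microscopy, with normalized cluster intensities fitted with a binding model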
experiment: apparent KD of K4 kissing-loop reporter; higher = weaker reporter binding
run.parameters: Eterna round: R107; input ligand: tryptophan 2.4 mM
Here, each record is paired with measured apparent KD of K4 kissing-loop reporter data.
measurement.name: apparent KD of K4 kissing-loop reporter (nM)

# biopolymer.sequence, result.value
records = [
    ("AAGGUCACUACUACAGUGAUGUUGUGGGAGCAGGAUAUGCAGAAAUGCAGAAGGGCUCGCUCCAAGUGACCGAAUGAAACAUUCA [Omei KL FMN A SS A v1]", 938),
    ("UAUGUACACGGGUAGUGAUACAUCGAGGAAGGAGCGUGCGCAGGCACAGGUAGGUCGCCUCAGCGCACGAGUGAUGUUCGUGGGC [Veti]", 376),
    ("UGUGUACCGGGAAGGAGCGUGAAUGAGAAUGGAUAUAGUGAUGUUAUGUAUACGAACGAAUCGCAGGUAGGUCGCCCGGAUCCCU [SSArgB.Z]", 461),
    ("GCUAUGGUAGGAAGGAGCGCUUGCUCGGUCAUAUGAGUGAUGUUCGAGACCGAGCAUUUAUAGCAGGUAGGUCGCCUACUAUAGC [Arginine B K4 8]", 198),
    ("AGUCCACUCUAAAGAGUGGACCUAAGGGAUACCAGUGAUGUUGGUCACCCUUGGCAGCCCGCUGUCAUCGAUAAAGAUGGCAGGA", 125),
    ("AAAGGAUCAGAGAGUGAUGUUCUCUAAUAACGAGGACCGGUACGGCCGCCACUCGAAUAGAUCCAAGUCCUACGAAAAGUAGGAC [Omei inspired 8]", 210),
]

Each recorded value in this set is attributed to the supplement of paper PMC9170038.
